# assay.details: photoluminescence quantum yield (fraction); solvent given as SMILES
# cond: in CCO

{"item.smiles": "COc1ccc(-c2csc(/C(C#N)=C\\Nc3ccc(C#N)cc3)n2)cc1", "photoluminescence quantum yield": 0.001}
{"item.smiles": "CCOC(=O)c1cc(C(=O)OCC)c2cc(N(CC)CC)ccc2n1", "photoluminescence quantum yield": 0.49}
{"item.smiles": "O=C1c2ccccc2-c2ccc(N3CCOCC3)c3cccc1c23", "photoluminescence quantum yield": 0.12}
{"item.smiles": "CN1C(C(=O)Nc2ccccn2)=C(O)c2sccc2S1(=O)=O", "photoluminescence quantum yield": 0.00738}
{"item.smiles": "CC1(C)C(/C=C/C2=C(Cl)C(=C/C=C3/N(Cc4ccc(C(=O)O)cc4)c4ccccc4C3(C)C)/CCC2)=[N+](Cc2ccc(C(=O)O)cc2)c2ccccc21", "photoluminescence quantum yield": 0.11}
